Recorded measurements of remaining at 96 h, one per entry
Experiment: physchem
Conditions: methanol:water:HCl, pH 1
Write the answer as a number in %, unit excluded.

[[record]]
smiles_record = "COc1ccc(CNc2nn(-c3cccnc3)c3ccc(C(F)(F)F)cc23)cc1"
numeric_value = 100


Report remaining at 96 h for `COc1ccc(CNc2nn(C)c3ccc(C(F)(F)F)cc23)cc1`
100
